protein stability index by entry:
B1: BTBD10 (parent)
chain: FVYENAKEGARNIRTSERVTLIVD

Variants of: B1
Assay: protein stability index of a GFP-peptide fusion (GPS, HEK-293T) (PSI 1-6); higher = more stable;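 further: lentivirally expressed fusions sorted by FACS into six bins by GFP to DsRed ratio, PSI derived from sequencing read proportions per bin multiplied by bin number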
Conditions: c terminus: a fixed tail appended

mutation-annotation	protein stability index
R14M	2.04
G9D	2.49
F1W	2.55
L21K	2.6
E17Q	1.87
V23I	1.82
L21T	2.07
I13Y	2.37
A6V	1.85
E17Y	2.24
N5M	1.61
E8N	1.81
